Test: Mammalian cytotoxicity (CC50), MTS conversion
Assay type: cell-based, human
Condition Notes: human, HeLa cells, Table 1; HeLa; read-out: Cytotox-HeLa CC50
Quantity Kind: CC50 at 3 days (µM)
Give just the numeric value; µM need not be written.

Previously resolved entries follow.
CCC(Oc1ncc(Cl)cc1Cl)C(=O)NCc1ccc(F)cc1 (stereo not drawn) : 85
CC[C@@H](Oc1ncc(Cl)cc1Cl)C(=O)NCc1ccc2cc(CN(C)C)[nH]c2c1 : 30
CC(Oc1ccc(Cl)cc1Cl)C(=O)NCc1cc2ccccc2[nH]1 (stereo not drawn) : 9

Consider now this further compound.
CC50 at 3 days in this record for "CC[C@@H](Oc1ncc(Cl)cc1Cl)C(=O)NCc1ccc2cc(C(=O)N3CCOCC3)[nH]c2c1" : 100
